- Tested on: MCF7 breast
- protocol: NCI tumour cell line growth inhibition, 48 h
Please provide measured TGI for the entries that follow.

A selection of reference data follows.
{"compound": "COC(=O)C1=CC(=O)OC1(OO)c1ccccc1 (centres undefined)", "TGI": "> 100 µM"}
{"compound": "Cc1cn(C(Cc2ccccc2)OCCO)c(=O)[nH]c1=O (centres undefined)", "TGI": "> 100 µM"}
{"compound": "O=C(/C=C/c1cc(CN2CCOCC2)c(O)c2ncccc12)c1cc(CN2CCOCC2)c(O)c2ncccc12", "TGI": "> 100 µM"}

// each compound listed below needs its TGI
1. CC(=O)O[C@H](C[C@H](C(C)C)N(C)C(=O)[C@@H](NC(=O)[C@H]1CCCCN1C)C(C)C)c1nc(C(=O)N[C@@H](Cc2ccccc2)C[C@H](C)C(=O)O)c(CCOCc2ccccc2)s1
2. COc1ccc(-c2c[nH]c(=S)n2-c2ccc(OC)cc2)cc1
3. CCc1ccc2oc(-c3cc(O)c(-c4nc5cc(CC)ccc5o4)cc3O)nc2c1
4. Cc1cc(S(=O)(=O)N/N=C(\Sc2cc(Cl)c(C)cc2S(N)(=O)=O)c2ccc(Cl)cc2)c(Cl)cc1Cl
5. Cc1ccc(S(=O)(=O)NCCNc2nccc(-c3c(-c4ccc(F)cc4)nc4sccn34)n2)cc1
6. N=C(N)SCc1cccc(-c2nc3ccccc3c(=O)o2)c1
7. CCn1c(CO)nn(-c2cc(O[C@@H](C)C(F)(F)F)c(C(=O)Nc3c(F)cccc3Cl)cc2F)c1=O
8. O=C1NC(N/N=C/C(O)C(O)C(O)CO)=N/C1=C\c1ccco1 (centres undefined)

> 10 µM
> 50 µM
> 100 µM
> 100 µM
> 100 µM
> 100 µM
> 100 µM
> 100 µM

// each compound listed below needs its TGI
1. O=c1c2ncn(COCCCl)c2n(-c2ccccc2)c(=S)n1-c1ccccc1
2. Nc1c(Cl)ncnc1N[C@@H]1C[C@H]1CO
3. Cc1cc[c-]cc1.Fc1c[c-]c(-c2ccccn2)c(F)c1.[Pt+2].c1ccc(P(C[PH+](c2ccccc2)c2ccccc2)c2ccccc2)cc1
4. Nc1ccc2[nH]c3c(-c4ccccc4)nccc3c2c1
5. COc1ccc(Nc2c3ccccc3nc3occ(Cl)c23)cc1
6. C=C1C(=O)CC2C(=O)C(C)(O)CC/C=C(\C)C(=O)CC12 (centres undefined)

["> 100 µM", "> 100 µM", "7.83 µM", "> 100 µM", "> 33.2 µM", "36.6 µM"]

// each compound listed below needs its TGI
1. CN(CCCNC(=O)Cc1ccc2ccc3cccc4ccc1c2c34)CCCNc1cc(-c2ccc3ccccc3c2)nc2ccccc12
2. NP(=O)(OCC1=CC(=O)c2ccccc2C1=O)N(CCBr)CCBr (centres undefined)

["2.08 µM", "> 40.9 µM"]

###

- System: A498 renal
- protocol: NCI tumour cell line growth inhibition, 48 h
measure name: GI50

A selection of reference data follows.
{"molecule": "COc1ccc(Nc2c3ccccc3nc3occ(Cl)c23)cc1", "measure name": "GI50", "recorded value": "< 10 nM"}
{"molecule": "COc1ccc(-c2c[nH]c(=S)n2-c2ccc(OC)cc2)cc1", "measure name": "GI50", "recorded value": "> 50000 nM"}
{"molecule": "O=C(Nc1ccc(-n2cc(-c3ccncc3)c(-c3ccc(Cl)c(O)c3)n2)cc1)Nc1ccc(Cl)c(C(F)(F)F)c1", "measure name": "GI50", "recorded value": "1630 nM"}

// each compound listed below needs its GI50
1. CCc1ccccc1NC(=O)c1sc2nc3c(cc2c1N)C(=O)CCC3
2. COc1cccc(/C(COc2ccc3c(c2)oc(=O)c2cc(OC)ccc23)=N/O)c1
3. Oc1cn(-c2ccc(Cl)cc2)nc1-c1n[nH]c(=S)n1C1CCCCC1
4. COc1cc2c3c(n(CCCN(C)C)c(=O)c2cc1OC)-c1ccccc1C3=O
5. COc1ccc(-c2ccc(/C=N/n3c(C)n[nH]c3=S)o2)c([N+](=O)[O-])c1
6. O=C(Nc1ccc(Br)cc1)c1ccc(Cl)c(Cl)c1

1. 220 nM
2. 3020 nM
3. 365 nM
4. 24700 nM
5. > 100000 nM
6. 207 nM

###

- Test system: OVCAR-4 ovarian
- protocol: NCI tumour cell line growth inhibition, 48 h; in the data active means GI50 below about 0.43 µM; inactive means the rest
Entry note: the call must match one of 1 (active), 0 (inactive)

Sample answers from the record:
{"molecule": "COc1ccc(C(=O)COc2cccc(/C=C3\\Oc4ccc5ccccc5c4C3=O)c2)cc1", "label": 0}
{"molecule": "CC(C)N=c1cc2n(-c3ccc(Cl)cc3)c3ccccc3nc-2cc1Nc1ccc(Cl)cc1", "label": 0}
{"molecule": "CCOC(=O)CNC(=O)c1ccccc1Nc1ccnc(C(F)(F)F)c1", "label": 0}
{"molecule": "Cc1cc(S(=O)(=O)N/N=C(\\Sc2cc(Cl)c(C)cc2S(N)(=O)=O)c2ccc(Cl)cc2)c(Cl)cc1Cl", "label": 0}

Tell me the assay call for C[C@@]12CCCc3coc(c31)C(=O)c1cc3c(cc12)C(=O)C=CC3=O please.
0

Tell me the assay call for Cc1cc[c-]cc1.Fc1c[c-]c(-c2ccccn2)c(F)c1.[Pt+2].c1ccc(P(C[PH+](c2ccccc2)c2ccccc2)c2ccccc2)cc1 please.
0

Tell me the assay call for C[C@]12CC[C@H](O)C[C@H]1CC[C@@H]1[C@@H]2CC[C@]2(C)[C@@H](C3=CC(=O)OC3)CC[C@]12O please.
1

Tell me the assay call for CC(=O)/C=C/c1ccc(C#Cc2ccccc2)s1 please.
0

Tell me the assay call for O=C(COc1ccc(/C=C2\CSc3ccccc3C2=O)cc1)Nc1nccs1 please.
0

Tell me the assay call for C=C1C(=O)O[C@H]2[C@H]1CC/C(COC(=O)c1ccc(Cl)nc1)=C\CC[C@@]1(C)O[C@@H]21 please.
0

Tell me the assay call for CCC(C)(C)c1ccc(OCCCCCCN2CCNCC2)cc1 please.
0

###

- Test system: M14 melanoma
- protocol: NCI tumour cell line growth inhibition, 48 h
measure name: TGI (µM)
Answers are plain numbers, in µM.

{"molecule": "CC(=O)O[C@H]1CC[C@@]2(C)C(=CC[C@H]3[C@@H]4C[C@H](N5CCCC5)[C@H](OC(C)=O)[C@@]4(C)CC[C@@H]32)C1", "system under test": "M14 melanoma", "measure name": "TGI", "recorded value": 33.9}

// each compound listed below needs its TGI
1. Cc1ccc(/C(O)=C/C(=O)C(=O)/C=C(\O)c2ccc(C)cc2C)c(C)c1
2. COC(=O)C1=C(C(=O)OC)SC2(S1)C1=C(CCCC1)SC(C(=O)OC)=C2C(=O)OC

1: 3.27; 2: 32.5

###

Please provide measured TGI for the entries that follow.
- System: HCC-2998 colon
- protocol: NCI tumour cell line growth inhibition, 48 h

A selection of reference data follows.
{"compound": "COc1cccc(C2CC(C)=Nc3c(ccc4c3C(=O)c3ccccc3C4=O)N2)c1O (centres undefined)", "TGI": "> 100 µM"}
{"compound": "COc1ccc(/C=N/N=C(\\N)NO)c(O)c1", "TGI": "> 10 µM"}
{"compound": "O=C(Nc1ccc(-n2cc(-c3ccncc3)c(-c3ccc(Cl)c(O)c3)n2)cc1)Nc1ccc(Cl)c(C(F)(F)F)c1", "TGI": "3.25 µM"}
{"compound": "COc1ccc(-c2ccc(/C=N/n3c(C)n[nH]c3=S)o2)c([N+](=O)[O-])c1", "TGI": "> 100 µM"}
{"compound": "CCc1ccc2oc(-c3cc(O)c(-c4nc5cc(CC)ccc5o4)cc3O)nc2c1", "TGI": "> 100 µM"}
{"compound": "COc1ccc2[nH]c3c4c(ccc3c2c1)C(=O)C=CC4=O", "TGI": "45.9 µM"}
{"compound": "Nc1nc(SN=Nc2ccc(S(N)(=O)=O)cc2)c2[nH]cnc2n1", "TGI": "> 100 µM"}
{"compound": "Nc1ccn(C2(CO)C=C(CO)C(O)C2O)c(=O)n1 (centres undefined)", "TGI": "> 25.8 µM"}
{"compound": "COC(=O)CCC(=O)CC1CC(=O)C2CCCN12 (centres undefined)", "TGI": "> 100 µM"}
{"compound": "O=C(Nc1ccc(-c2ccccc2)cc1)C1CCN(S(=O)(=O)c2ccccc2Cl)CC1", "TGI": "> 100 µM"}

// each compound listed below needs its TGI
1. CN(NC(=O)c1cccs1)C1=NCCCN1
2. CC(=O)/C=C/c1ccc(C#Cc2ccccc2)s1
3. C[n+]1cc(C(O)c2ccc3c(c2)OCO3)c2ccccc2c1 (centres undefined)

> 100 µM
27.8 µM
> 100 µM

###

- Test system: T-47D breast
- protocol: NCI tumour cell line growth inhibition, 48 h; in the data active means GI50 below about 0.43 µM; inactive means the rest
Entry note: the call must match one of active, inactive

Sample answers from the record:
{"molecule": "CCC(C)(C)c1ccc(OCCCCCCN2CCNCC2)cc1", "label": "inactive"}
{"molecule": "COc1cc2c3c(n(CCCN(C)C)c(=O)c2cc1OC)-c1ccccc1C3=O", "label": "inactive"}
{"molecule": "COc1ccc2ncn(-c3cc(O[C@H](C)c4ccccc4Cl)c(C(N)=O)s3)c2c1", "label": "inactive"}

Tell me the assay call for C[C@]12CCc3nc(Nc4ccccc4)sc3C1=CC[C@@H]1[C@@H]2CC[C@]2(C)/C(=N/NC(N)=S)CC[C@@H]12 please.
inactive

Tell me the assay call for Cc1cc[c-]cc1.Fc1c[c-]c(-c2ccccn2)c(F)c1.[Pt+2].c1ccc(P(C[PH+](c2ccccc2)c2ccccc2)c2ccccc2)cc1 please.
inactive

Tell me the assay call for Oc1cn(-c2ccc(Cl)cc2)nc1-c1n[nH]c(=S)n1C1CCCCC1 please.
inactive

Tell me the assay call for C=C1C(=O)O[C@H]2[C@H]1CC/C(COC(=O)c1ccc(Cl)nc1)=C\CC[C@@]1(C)O[C@@H]21 please.
inactive

Tell me the assay call for CCn1c(CO)nn(-c2cc(O[C@@H](C)C(F)(F)F)c(C(=O)Nc3c(F)cccc3Cl)cc2F)c1=O please.
active

Tell me the assay call for COc1ccc2c(c1)C(C)Cc1c(ncnc1-n1c(C)nc3ccccc31)N2C (centres undefined) please.
inactive

Value source: PubChem BioAssay (NCI)
